// compounds with IC50 on UniProt Q42656, multi-source literature
Sequence (Q42656 whole entry): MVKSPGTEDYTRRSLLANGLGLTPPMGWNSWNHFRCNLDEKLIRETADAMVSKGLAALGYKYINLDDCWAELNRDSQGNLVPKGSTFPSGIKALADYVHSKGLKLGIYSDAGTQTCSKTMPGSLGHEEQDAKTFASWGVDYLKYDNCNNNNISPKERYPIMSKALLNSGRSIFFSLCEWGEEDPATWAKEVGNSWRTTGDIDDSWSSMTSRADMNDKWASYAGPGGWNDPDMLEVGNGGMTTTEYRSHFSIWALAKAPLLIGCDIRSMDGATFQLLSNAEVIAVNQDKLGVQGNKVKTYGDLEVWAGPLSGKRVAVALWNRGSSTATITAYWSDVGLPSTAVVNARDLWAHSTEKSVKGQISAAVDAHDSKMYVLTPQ

Compound: N=C(NCCO)N1C[C@H](O)[C@@H](O)[C@H](O)[C@H]1CO
Result Operator: =
IC50 / µM: 540

Compound: OCc1ccc(-c2cn(C[C@H]3NC[C@@H](O)[C@H]3O)nn2)cc1
Result Operator: =
IC50 / µM: 14

Compound: CCCCNC(=O)N1C[C@H](O)[C@@H](O)[C@H](O)[C@H]1CO
Result Operator: >
IC50 / µM: 1000

Compound: CCCCCCCCCCCn1cc(CN[C@H]2[C@H](O)[C@@H](O)[C@H](O)[C@@H](O)[C@@H]2O)nn1
Result Operator: >
IC50 / µM: 100

Compound: OCCN1C[C@@H](O)[C@H](O)[C@H]1CO
Result Operator: =
IC50 / µM: 700

Compound: O[C@@H]1[C@H](O)CN[C@@H]1CCn1cc(-c2ccccc2)nn1
Result Operator: =
IC50 / µM: 107

Compound: N=C(NCCCc1ccccc1)N1C[C@H](O)[C@@H](O)[C@H](O)[C@H]1CO
Result Operator: >
IC50 / µM: 1000

Compound: OC[C@H]1N[C@H](CCCCCCCc2ccccc2)[C@@H](O)[C@H]1O
Result Operator: =
IC50 / µM: 41

Compound: CCCCOC1OCC(CNC(=N)N2C[C@@H](O)[C@H](O)[C@@H](O)C2)O1 (stereo partly drawn)
Result Operator: >
IC50 / µM: 30

Compound: COc1ccc(-c2cn(C[C@H]3NC[C@@H](O)[C@H]3O)nn2)cc1
Result Operator: =
IC50 / µM: 13

Compound: N=C(NCCCOCC12CC3CC(CC(C3)C1)C2)N1C[C@H](O)[C@@H](O)[C@H](O)[C@H]1CO
Result Operator: >
IC50 / µM: 1000

Compound: O[C@@H]1[C@@H](O)[C@H](O)[C@@H](NCc2cn(CC34CC5CC(CC(C5)C3)C4)nn2)[C@H](O)[C@H]1O
Result Operator: >
IC50 / µM: 100

Compound: CCCCCCCCCN1C[C@H](O)[C@@H](O)[C@H](O)[C@H]1CO
Result Operator: >
IC50 / µM: 100
